Readings of pIC50 for the listed compounds
- TARGET OF ASSAY: human Src enzyme (Homo sapiens)
- Construct: purchased Carna Biosciences, Inc. 08-173
- Sequence (P12931 whole entry): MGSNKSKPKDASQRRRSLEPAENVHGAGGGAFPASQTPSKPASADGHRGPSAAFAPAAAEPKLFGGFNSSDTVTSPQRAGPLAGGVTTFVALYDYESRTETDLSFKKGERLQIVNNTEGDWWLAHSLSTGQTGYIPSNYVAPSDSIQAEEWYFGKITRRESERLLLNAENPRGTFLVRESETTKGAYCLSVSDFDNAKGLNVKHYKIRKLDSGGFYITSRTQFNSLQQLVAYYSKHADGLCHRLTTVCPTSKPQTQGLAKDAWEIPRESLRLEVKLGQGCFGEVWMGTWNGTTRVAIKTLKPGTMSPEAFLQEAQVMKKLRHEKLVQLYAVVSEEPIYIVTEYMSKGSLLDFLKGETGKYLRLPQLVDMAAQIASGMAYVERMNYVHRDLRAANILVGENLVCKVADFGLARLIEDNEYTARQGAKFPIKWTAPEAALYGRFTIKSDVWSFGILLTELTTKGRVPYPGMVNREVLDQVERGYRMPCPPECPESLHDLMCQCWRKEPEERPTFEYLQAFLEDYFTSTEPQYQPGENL
- ASSAY EXPLANATION: Src enzyme inhibitory activity (time-resolved fluorometry, biotinylated peptide phosphorylation)
- Type: biochemical
- TEST CONDITIONS: biotinylated peptide phosphorylation, read-out: SRC_IC50
pIC50: −log10 of the molar value.

COMPOUND	pIC50
Cc1cc(Oc2ccccc2F)cc(F)c1-n1ncc(C(=O)c2cc3cc(NS(C)(=O)=O)c(F)cc3[nH]2)c1N [Example 4-2-099]	7.82
Cc1cc2cc(C(=O)c3cnn(-c4cnc(Oc5c(F)cccc5F)cc4C)c3N)[nH]c2cc1N1CCC(N2CCOCC2)CC1 [Example 4-2-125]	7.55
COc1cc2cc(C(=O)c3cnn(-c4cnc(Oc5ccccc5F)cc4C)c3N)[nH]c2cc1NS(=O)(=O)CC(=O)N1CCCC1 [Example 4-10-014]	7.54
Cc1cc2cc(C(=O)c3cnn(-c4cnc(Oc5ccc(F)cc5)cc4C)c3N)[nH]c2cc1NS(=O)(=O)CCCF [Example 4-2-076]	6.89
Cc1cc2cc(C(=O)c3cnn(-c4cnc(Oc5ccccc5F)cc4C)c3N)[nH]c2cc1NS(=O)(=O)CCCF [Example 4-2-072]	7.06
Cc1cc(Oc2ccccc2F)ccc1-n1ncc(C(=O)c2cc3cc(OCCN4CCOCC4)c(NS(C)(=O)=O)cc3[nH]2)c1N [Example 4-24-034]	8.09

###

- TARGET OF ASSAY: human Yes1 enzyme (Homo sapiens)
- Construct: made in house
- Sequence (P07947 whole entry): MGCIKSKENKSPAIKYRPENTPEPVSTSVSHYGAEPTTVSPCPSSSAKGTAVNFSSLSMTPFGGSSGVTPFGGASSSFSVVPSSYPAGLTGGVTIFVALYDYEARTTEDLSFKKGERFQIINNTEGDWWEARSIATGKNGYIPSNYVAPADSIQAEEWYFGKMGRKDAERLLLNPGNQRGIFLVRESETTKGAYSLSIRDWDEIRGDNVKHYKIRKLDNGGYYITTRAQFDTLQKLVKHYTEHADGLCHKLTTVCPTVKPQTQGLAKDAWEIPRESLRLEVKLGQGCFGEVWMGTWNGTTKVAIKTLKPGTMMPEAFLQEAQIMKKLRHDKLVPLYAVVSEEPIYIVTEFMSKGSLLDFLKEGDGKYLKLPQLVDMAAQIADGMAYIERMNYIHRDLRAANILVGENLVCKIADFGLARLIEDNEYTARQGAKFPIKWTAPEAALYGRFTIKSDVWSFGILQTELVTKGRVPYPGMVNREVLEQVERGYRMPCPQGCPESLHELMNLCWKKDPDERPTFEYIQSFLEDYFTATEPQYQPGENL
- ASSAY EXPLANATION: Yes1 enzyme inhibitory activity (time-resolved fluorometry, biotinylated peptide phosphorylation)
- Format: biochemical
- TEST CONDITIONS: biotinylated peptide phosphorylation, read-out: YES_IC50
MEASUREMENT TYPE: IC50 (nM)

CHEMICAL STRING	MEASUREMENT TYPE	READOUT NUMBER
Cc1cc(Oc2ccccc2F)ccc1-n1ncc(C(=O)c2cc3cc(F)c(NS(=O)(=O)NC4COC4)cc3[nH]2)c1N	IC50	0.51
Cc1cc(Oc2ccccc2F)ccc1-n1ncc(C(=O)c2cc3cc(OCC(F)F)c(NC4CCN(S(C)(=O)=O)CC4)cc3[nH]2)c1N	IC50	5.1
Cc1cccc(S(=O)(=O)Nc2cc3[nH]c(C(=O)c4cnn(-c5ccc(Oc6ccccc6F)cc5C)c4N)cc3cc2C)n1	IC50	2.6
Cc1cc2cc(C(=O)c3cnn(-c4ccc(Oc5ccccc5F)cc4C)c3N)[nH]c2cc1NS(=O)(=O)c1cccc(Cl)n1	IC50	3.1
Cc1cc(Oc2ccccc2F)ncc1-n1ncc(C(=O)c2cc3cc(OCC(F)F)c(NS(=O)(=O)c4cccc(Cl)c4)cc3[nH]2)c1N	IC50	5.6
Cc1cc2cc(C(=O)c3cnn(-c4cnc(Oc5c(F)cccc5F)cc4C)c3N)[nH]c2cc1N1C(=O)[C@@H]2CCCN2C1=O	IC50	1.7

###

In this section we review reported IC50 values for a set of compounds.
- TARGET OF ASSAY: human Lck enzyme (Homo sapiens)
- Construct: purchased Carna Biosciences, Inc. 08-170
- ASSAY EXPLANATION: Lck enzyme inhibitory activity (time-resolved fluorometry, biotinylated peptide phosphorylation)
- Format: biochemical
- TEST CONDITIONS: biotinylated peptide phosphorylation, read-out: LCK_IC50
MEASUREMENT TYPE: IC50 (nM)

CHEMICAL STRING	MEASUREMENT TYPE	READOUT NUMBER
Cc1cc(Oc2ccccc2F)ccc1-n1ncc(C(=O)c2cc3cc(F)c(NS(=O)(=O)NC4COC4)cc3[nH]2)c1N	IC50	11
Cc1cccc(S(=O)(=O)Nc2cc3[nH]c(C(=O)c4cnn(-c5cnc(Oc6ccccc6F)cc5C)c4N)cc3cc2C)c1	IC50	260
Cc1cc(Oc2c(F)cccc2F)ncc1-n1ncc(C(=O)c2cc3cc(OCC(F)F)c(C4CCN(S(=O)(=O)C5CC5)CC4)cc3[nH]2)c1N	IC50	25

###

- TARGET OF ASSAY: human Lck enzyme (Homo sapiens, UniProt P06239)
- Construct: purchased Carna Biosciences, Inc. 08-170
- Sequence (P06239 whole entry): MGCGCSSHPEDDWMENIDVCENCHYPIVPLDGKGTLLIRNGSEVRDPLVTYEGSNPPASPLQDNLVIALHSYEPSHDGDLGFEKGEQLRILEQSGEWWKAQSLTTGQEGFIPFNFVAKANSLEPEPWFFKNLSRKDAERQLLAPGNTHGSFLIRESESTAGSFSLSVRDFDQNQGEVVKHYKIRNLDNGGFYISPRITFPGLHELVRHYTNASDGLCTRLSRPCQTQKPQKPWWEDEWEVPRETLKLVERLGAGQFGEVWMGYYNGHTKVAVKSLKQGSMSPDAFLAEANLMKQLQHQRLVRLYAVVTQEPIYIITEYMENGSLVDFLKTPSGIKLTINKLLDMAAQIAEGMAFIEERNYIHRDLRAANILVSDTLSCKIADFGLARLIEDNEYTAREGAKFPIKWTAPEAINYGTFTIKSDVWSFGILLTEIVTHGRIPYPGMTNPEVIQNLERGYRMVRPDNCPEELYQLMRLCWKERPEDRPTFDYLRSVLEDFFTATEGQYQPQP
- ASSAY EXPLANATION: Lck enzyme inhibitory activity (time-resolved fluorometry, biotinylated peptide phosphorylation)
- Assay type: biochemical
- TEST CONDITIONS: biotinylated peptide phosphorylation, read-out: LCK_IC50
Decision: IC50 beneath 40 nM gives True; IC50 meeting or exceeding 40 nM gives False.

CHEMICAL STRING	ASSIGNED CATEGORY
Cc1cc(Oc2cccc(F)c2F)cc(F)c1-n1ncc(C(=O)c2cc3cc(F)c(NS(=O)(=O)C4CC4)cc3[nH]2)c1N	False
Cc1cc2cc(C(=O)c3cnn(-c4cnc(Oc5c(F)cccc5F)cc4C)c3N)[nH]c2cc1NS(=O)(=O)c1cccc(F)n1	False
COc1cc2cc(C(=O)c3cnn(-c4ccc(Oc5cccc(F)c5F)cc4C)c3N)[nH]c2cc1NS(C)(=O)=O	True
CCN(c1cc2[nH]c(C(=O)c3cnn(-c4cnc(Oc5c(F)cccc5F)cc4C)c3N)cc2cc1F)S(C)(=O)=O	True
Cc1cc(Oc2c(F)cccc2F)ncc1-n1ncc(C(=O)c2cc3cc(OC(F)F)c(NS(=O)(=O)C4CC4)cc3[nH]2)c1N	True
Cc1cc(Oc2ccccc2F)ccc1-n1ncc(C(=O)c2cc3cc(OCC(F)F)c(C4CCN(S(C)(=O)=O)CC4)cc3[nH]2)c1N	True

###

Entries annotated with measured pIC50
- TARGET OF ASSAY: human Lck enzyme (Homo sapiens, UniProt P06239)
- Construct: purchased Carna Biosciences, Inc. 08-170
- ASSAY EXPLANATION: Lck enzyme inhibitory activity (time-resolved fluorometry, biotinylated peptide phosphorylation)
- Assay type: biochemical
- TEST CONDITIONS: biotinylated peptide phosphorylation, read-out: LCK_IC50
pIC50: −log10 of the molar value.

CHEMICAL STRING	pIC50
Cc1cc(Oc2ccccc2F)ccc1-n1ncc(C(=O)c2cc3cc(F)c(NS(=O)(=O)NC4CCC4)cc3[nH]2)c1N	7.21
Cc1cc(Oc2ccccc2F)ncc1-n1ncc(C(=O)c2cc3cc(OCC(F)F)c(NS(=O)(=O)C4CC4)cc3[nH]2)c1N	7.26
Cc1cc(Oc2c(F)cccc2F)ncc1-n1ncc(C(=O)c2cc3cc(F)c(NS(=O)(=O)c4cccc(Cl)n4)cc3[nH]2)c1N	6.64
Cc1cc(Oc2ccccc2F)cc(F)c1-n1ncc(C(=O)c2cc3cc(F)c(NS(C)(=O)=O)cc3[nH]2)c1N	8.15
Cc1cc(Oc2ccccc2F)ccc1-n1ncc(C(=O)c2cc3cc(F)c(N4C(=O)NC5(CCOCC5)C4=O)cc3[nH]2)c1N	8.11
Cc1cc(Oc2cc(F)ccc2F)ncc1-n1ncc(C(=O)c2cc3cc(F)c(NS(C)(=O)=O)cc3[nH]2)c1N	7.59
Cc1cc(Oc2ccccc2F)ccc1-n1ncc(C(=O)c2cc3cc(F)c(NS(=O)(=O)c4cncc(F)c4)cc3[nH]2)c1N	7.52
Cc1ccccc1Oc1cc(C)c(-n2ncc(C(=O)c3cc4cc(Cl)c(NS(C)(=O)=O)cc4[nH]3)c2N)cn1	7.77
Cc1cc(Oc2c(F)cccc2F)ncc1-n1ncc(C(=O)c2cc3cc(OCC(F)F)c(NS(=O)(=O)CCCF)cc3[nH]2)c1N	7.85
Cc1cc(Oc2ccccc2F)ccc1-n1ncc(C(=O)c2cc3cc(F)c(NS(=O)(=O)CCCF)cc3[nH]2)c1N	8.00
Cc1cc(Oc2ccccc2F)ncc1-n1ncc(C(=O)c2cc3cc(OC(F)F)c(N4CCCS4(=O)=O)cc3[nH]2)c1N	8.06
Cc1cc(Oc2c(F)cccc2F)ncc1-n1ncc(C(=O)c2cc3cc(F)c(NS(=O)(=O)c4cccc(F)n4)cc3[nH]2)c1N	7.09
Cc1cc(Oc2ccccc2F)ccc1-n1ncc(C(=O)c2cc3cc(OCC(F)F)c(N4C(=O)C(C)(C)NC4=S)cc3[nH]2)c1N	8.17
Cc1cc(Oc2cc(F)cc(F)c2)ncc1-n1ncc(C(=O)c2cc3cc(F)c(NS(=O)(=O)CCCF)cc3[nH]2)c1N	6.92
Cc1cc(Oc2ccccc2F)ccc1-n1ncc(C(=O)c2cc3cc(OCCN4C[C@@H]5C[C@H]4CN5S(C)(=O)=O)c(NS(C)(=O)=O)cc3[nH]2)c1N	8.54
Cc1cc(Oc2c(F)cccc2F)ncc1-n1ncc(C(=O)c2cc3cc(OCC(F)F)c(NC4CN(S(C)(=O)=O)C4)cc3[nH]2)c1N	8.10
COc1cc2cc(C(=O)c3cnn(-c4ccc(Oc5ccccc5F)cc4C)c3N)[nH]c2cc1NS(=O)(=O)CC(=O)NC(C)C	8.42
Cc1cc(Oc2c(F)cccc2F)ncc1-n1ncc(C(=O)c2cc3cc(OC(F)F)c(NS(=O)(=O)N4CCOCC4)cc3[nH]2)c1N	7.21
Cc1cc2cc(C(=O)c3cnn(-c4ccc(Oc5ccccc5F)cc4C)c3N)[nH]c2cc1N1C(=O)N[C@@H](Cc2ccccc2)C1=O	7.72
Cc1cc(Oc2ccccc2F)ccc1-n1ncc(C(=O)c2cc3cc(F)c(NS(=O)(=O)c4cccc(F)c4)cc3[nH]2)c1N	6.89
Cc1cc(Oc2c(F)cccc2F)ncc1-n1ncc(C(=O)c2cc3cc(OC(F)F)c(C4CCN(C(=O)OC(C)(C)C)CC4)cc3[nH]2)c1N	7.41
Cc1cc(Oc2ccccc2F)ccc1-n1ncc(C(=O)c2cc3cc(OC(F)F)c(C4CCN(C(=O)CN)CC4)cc3[nH]2)c1N	7.82
Cc1cc(Oc2ccccc2F)ccc1-n1ncc(C(=O)c2cc3cc(F)c(N4C(=O)NC5(CCCCC5)C4=O)cc3[nH]2)c1N	7.66
Cc1cc(Oc2ccccc2F)ccc1-n1ncc(C(=O)c2cc3cc(OCC(F)F)c(-n4c(C)cc(=O)[nH]c4=O)cc3[nH]2)c1N	8.42
Cc1cc(Oc2ccccc2F)ncc1-n1ncc(C(=O)c2cc3cc(OC(F)F)c(N4CCC(N5CCOCC5)CC4)cc3[nH]2)c1N	8.04

Entry source: patent US10479780B2
